target: androgen receptor (AR) (Homo sapiens); assay: AR antagonist luciferase gene reporter assay (AR plasmid pSVAR0 + MMTV-Luc, DHT at EC80)
Sequence (P10275 whole entry): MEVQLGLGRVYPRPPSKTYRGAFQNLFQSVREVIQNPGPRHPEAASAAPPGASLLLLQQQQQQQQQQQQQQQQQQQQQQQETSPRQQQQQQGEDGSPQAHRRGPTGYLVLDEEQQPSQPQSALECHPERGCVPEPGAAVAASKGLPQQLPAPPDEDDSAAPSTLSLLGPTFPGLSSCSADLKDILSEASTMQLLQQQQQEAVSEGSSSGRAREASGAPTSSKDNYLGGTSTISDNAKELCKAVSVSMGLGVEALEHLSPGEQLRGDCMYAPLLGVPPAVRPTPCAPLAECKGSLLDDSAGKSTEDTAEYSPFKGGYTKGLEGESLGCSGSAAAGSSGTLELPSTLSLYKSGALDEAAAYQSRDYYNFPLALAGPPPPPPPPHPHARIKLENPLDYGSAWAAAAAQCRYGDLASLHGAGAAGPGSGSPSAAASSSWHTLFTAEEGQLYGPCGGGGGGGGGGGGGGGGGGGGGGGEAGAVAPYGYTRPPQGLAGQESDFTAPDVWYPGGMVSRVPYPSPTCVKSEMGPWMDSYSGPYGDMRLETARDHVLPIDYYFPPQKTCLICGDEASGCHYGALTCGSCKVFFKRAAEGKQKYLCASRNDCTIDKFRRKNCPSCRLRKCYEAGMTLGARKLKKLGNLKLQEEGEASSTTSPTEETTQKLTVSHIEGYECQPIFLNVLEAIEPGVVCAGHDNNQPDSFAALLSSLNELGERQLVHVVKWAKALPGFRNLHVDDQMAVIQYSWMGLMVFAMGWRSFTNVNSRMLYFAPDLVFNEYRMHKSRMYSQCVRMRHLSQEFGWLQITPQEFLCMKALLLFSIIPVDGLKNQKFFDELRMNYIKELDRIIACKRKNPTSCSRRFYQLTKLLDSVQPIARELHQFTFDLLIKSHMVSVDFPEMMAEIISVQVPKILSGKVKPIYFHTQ
Property: Antagonist Activity in CV-1 Efficacy (%)
Lab book: enter the figure in %, no units written.

So, Cc1ccc(N2C(=O)N(c3ccc(C#N)c(C(F)(F)F)c3)C(=O)C2(C)CO)cc1 (centres unmarked) ? Its Antagonist Activity in CV-1 Efficacy was 95

get_value(item= CC1(CO)C(=O)N(c2ccc(C#N)c(C(F)(F)F)c2)C(=S)N1c1ccc(C(F)(F)F)cc1 (centres unmarked) , readout=Antagonist Activity in CV-1 Efficacy) returns 102

// Antagonist Activity in CV-1 Efficacy value for CC1(CO)C(=O)N(c2ccc(C#N)c(C(F)(F)F)c2)C(=O)N1c1ccc(C(F)(F)F)cc1 (centres unmarked) : 99

Lookup result for CC1(CO)C(=O)N(c2ccc(C#N)c(C(F)(F)F)c2)C(=S)N1c1ccccc1 (centres unmarked) ; measured Antagonist Activity in CV-1 Efficacy: 101

# Antagonist Activity in CV-1 Efficacy of COC(=O)c1ccc(N2C(=O)N(c3ccc(C#N)c(C(F)(F)F)c3)C(=O)C2(C)CO)cc1 (centres unmarked) = 96

CC1(CO)C(=O)N(c2ccc(C#N)c(C(F)(F)F)c2)C(=S)N1c1ccc(F)cc1 (centres unmarked) has a reported Antagonist Activity in CV-1 Efficacy of 91

Field Antagonist Activity in CV-1 Efficacy (entry CC(=O)Nc1ccc(N2C(=O)N(c3ccc(C#N)c(C(F)(F)F)c3)C(=O)C2(C)CO)cc1 (centres unmarked) ) reads 84

Data point: CC1(CO)C(=O)N(c2ccc(C#N)c(C(F)(F)F)c2)C(=S)N1c1ccc(Cl)cc1 (centres unmarked) ; Antagonist Activity in CV-1 Efficacy = 96
